- TEST TARGET: Activin receptor type-1 (Homo sapiens, UniProt Q04771); note: in the data inactive means no Kd found up to 30 µM
- Sequence (Q04771 whole entry): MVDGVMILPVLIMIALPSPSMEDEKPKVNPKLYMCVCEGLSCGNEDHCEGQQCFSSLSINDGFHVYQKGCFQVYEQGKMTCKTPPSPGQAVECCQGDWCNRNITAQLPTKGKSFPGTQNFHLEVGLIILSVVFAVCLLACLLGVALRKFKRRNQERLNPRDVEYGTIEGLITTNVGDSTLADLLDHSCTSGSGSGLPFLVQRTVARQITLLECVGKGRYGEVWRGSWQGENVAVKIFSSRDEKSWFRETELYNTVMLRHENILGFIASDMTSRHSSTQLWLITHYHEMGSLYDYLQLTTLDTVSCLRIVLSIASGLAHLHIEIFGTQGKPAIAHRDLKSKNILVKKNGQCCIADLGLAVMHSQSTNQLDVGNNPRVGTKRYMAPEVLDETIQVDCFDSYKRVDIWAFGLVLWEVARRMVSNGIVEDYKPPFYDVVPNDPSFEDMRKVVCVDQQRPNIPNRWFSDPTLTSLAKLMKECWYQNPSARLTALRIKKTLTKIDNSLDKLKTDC
Where a name gives a salt, the structure may show the parent alone. The source made the active and inactive calls.
API: response.call in active, inactive

// outcome(item) with item = COCC(=O)NC/C=C/c1ccc2ncnc(Nc3ccc(Oc4ccc(C)nc4)c(C)c3)c2c1 inactive

// outcome(item) with item = O=C(Nc1nc2cccc(-c3ccc(CN4CCS(=O)(=O)CC4)cc3)n2n1)C1CC1 inactive

// outcome(item) with item = C[C@@H](NC(=O)c1ncnc(N)c1Cl)c1ncc(C(=O)Nc2cc(C(F)(F)F)c(Cl)cn2)s1 inactive

// outcome(item) with item = O=C(Nc1c[nH]nc1-c1nc2cc(CN3CCOCC3)ccc2[nH]1)NC1CC1 active

// outcome(item) with item = CO[C@H]1C[C@@H]2CC[C@@H](C)[C@@](O)(O2)C(=O)C(=O)N2CCCC[C@H]2C(=O)O[C@H]([C@H](C)C[C@@H]2CC[C@@H](OC(=O)C(C)(CO)CO)[C@H](OC)C2)CC(=O)[C@H](C)/C=C(\C)[C@@H](O)[C@@H](OC)C(=O)[C@H](C)C[C@H](C)/C=C/C=C/C=C/1C inactive

// outcome(item) with item = C=CC(=O)N1CCC[C@H](n2c(=O)n(-c3ccc(Oc4ccccc4)cc3)c3c(N)ncnc32)C1 inactive

// outcome(item) with item = COc1cc([C@@H]2c3cc4c(cc3[C@H](O)[C@H]3COC(=O)[C@@H]23)OCO4)cc(OC)c1OC inactive

// outcome(item) with item = COc1cc(Nc2ncc3c(n2)-c2ccc(Cl)cc2C(c2c(F)cccc2OC)=NC3)ccc1C(=O)O inactive

// outcome(item) with item = COc1ncc(-c2ccc3nccc(-c4ccnnc4)c3c2)cc1NS(=O)(=O)c1ccc(F)cc1F inactive

// outcome(item) with item = CCn1c(C(=O)N(C2CC2)C2CC2)cc2c3c(ncn3C)c(Nc3cc(C)n(C)n3)nc21 inactive

// outcome(item) with item = O=C1NC(=O)[C@@H](c2cn3c4c(cccc24)CCC3)[C@@H]1c1c[nH]c2ccccc12 [TIVANTINIB] inactive

// outcome(item) with item = Cc1[nH]c(/C=C2\C(=O)Nc3ccccc32)c(C)c1CCC(=O)O [ORANTINIB] inactive

// outcome(item) with item = COc1cc2ncnc(Oc3cccc(NC(=O)Nc4cc(C(C)(C)C(F)(F)F)on4)c3)c2cc1OC inactive

// outcome(item) with item = CC(=O)c1cnc2ccc(-c3cc(Cl)c(O)c(Cl)c3)nc2c1N[C@H]1CC[C@H](CN(C)C)CC1 active

// outcome(item) with item = COc1c(OCCCN2CCOCC2)ccc2c1N=C(NC(=O)c1cnc(N)nc1)N1CCN=C21 inactive

// outcome(item) with item = COc1cc2c(Nc3ccc(Cl)c(Cl)c3F)ncnc2cc1OC[C@@H]1C[C@@H]2CN(C)C[C@@H]2C1 inactive

// outcome(item) with item = C[C@@H](Oc1cc(C(=O)Nc2ccc(C(=O)N3CCN(C)CC3)cc2)nnc1N)c1c(Cl)ccc(F)c1Cl inactive

// outcome(item) with item = CN1C/C=C/CCOc2cccc(c2)-c2ccnc(n2)Nc2cccc(c2)C1 inactive

// outcome(item) with item = CCCCCCCCCCCCCCCCCCOP(=O)([O-])OC1CC[N+](C)(C)CC1 inactive

// outcome(item) with item = Cc1cc(Nc2ncc(Cl)c(Nc3ccccc3S(=O)(=O)C(C)C)n2)c(OC(C)C)cc1C1CCNCC1 inactive

// outcome(item) with item = CCS(=O)(=O)c1cccc(-c2cc(C(=O)NC3CCN(C)CC3)c(C)c3[nH]c4ncc(C)cc4c23)c1 active

// outcome(item) with item = CN1CCN(CCOc2cc(OC3CCOCC3)c3c(Nc4c(Cl)ccc5c4OCO5)ncnc3c2)CC1 active

// outcome(item) with item = CCOc1cc2ncc(C#N)c(Nc3ccc(F)c(Cl)c3)c2cc1NC(=O)/C=C/CN(C)C inactive

// outcome(item) with item = CCS(=O)(=O)N1CCN(c2ccc(Nc3ncc(C(N)=O)c(NC4CC4)n3)cc2)CC1 [Cerdulatinib Hydrochloride] inactive

// outcome(item) with item = Cn1cnc2c(F)c(Nc3ccc(Br)cc3F)c(C(=O)NOCCO)cc21 inactive

// outcome(item) with item = CO[C@H]1C[C@@H]2CC[C@@H](C)[C@@](O)(O2)C(=O)C(=O)N2CCCC[C@H]2C(=O)O[C@H]([C@H](C)C[C@@H]2CC[C@@H](OP(C)(C)=O)[C@H](OC)C2)CC(=O)[C@H](C)/C=C(\C)[C@@H](O)[C@@H](OC)C(=O)[C@H](C)C[C@H](C)/C=C/C=C/C=C/1C inactive

// outcome(item) with item = NC(=O)Nc1cc(-c2cccc(F)c2)sc1C(=O)N[C@H]1CCCNC1 inactive

// outcome(item) with item = Nc1ncnc2c1c(-c1cccc(OCc3ccccc3)c1)cn2[C@H]1C[C@@H](CN2CCC2)C1 active

// outcome(item) with item = Cn1cc(-c2cnc3ccc4ccc(CS(=O)(=O)NCc5ccccn5)cc4c(=O)c3c2)cn1 inactive
